# Lookup of reported inhibition keyed by entry
test: growth inhibition of BT084 medulloblastoma cells, cell-based, ICGC_MB145, cisplatin and BGB IC40 combos (AID 1671461); details: drug combinations, cisplatin combination, at 5 µM, stronger effect = higher value;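 note: cells exposed to drugs for 96 hours; 0% = vehicle DMSO and 100% = high DMSO full killing control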
Note: state the figure and append the unit.

Solved entries:
NC(=O)c1ncn(C2OC(CO)C(O)C2O)n1 (centres undefined)	-28.4%
CO[C@H]1/C=C/O[C@@]2(C)Oc3c(C)c(O)c4c(O)c(c(C=NN5CCN(C)CC5)c(O)c4c3C2=O)NC(=O)/C(C)=C\C=C\[C@H](C)[C@H](O)[C@@H](C)[C@@H](O)[C@@H](C)[C@H](OC(C)=O)[C@@H]1C	-36.2%
CC(C)N=c1cc2n(-c3ccc(Cl)cc3)c3ccccc3nc-2cc1Nc1ccc(Cl)cc1	-55.6%

As a next step, examine the compound that follows.
Q: Look up inhibition: O=c1ncccn1[C@@H]1O[C@H](CO)[C@@H](O)[C@H]1O
A: -19.4%
